Readings of folding stability dG unfold for the listed sequences
- Protocol Summary: folding stability dG unfold from trypsin proteolysis; higher = more stable
Recorded Metric: folding stability dG unfold (kcal/mol)

SAGGSAGGSMNPEVPYAKVTLELKLPDGTTATLTLEVPLEEIPKVIEELKKKGYEILSIKIEPSAGGSAGGS [r12_986_JUSTAS]    4.17
SAGGSAGGSAPPWTRVLGLGTFPPGVPDLPVEVPGGNVYALFTPTEDGSVQVLIVDLIPPLSAGGSAGGSAG [r3_464_TrMRF]    0.472
SAGDKIEIKFNIPMPEGPIRIMVWDNGKREEKDIPPGEEVTIKIDLPPGDDYRIAIYYPDGNMHEFPINSAG [r5_187_TrROS]    1.65
SAGGSMKLTTTTPDGKPFEADVTEYPTFYKITFKVGNKEYTLLANPSTNTVDGNVDGFPFKLKLNPSAGGSA [r2_194_TrMRF]    1.28
SAGGSVTLPDATVVKVPPSQDWQEHADRLAAEIREAGADYEVSVESTPDGSVLITITVPGRTWTMVTSAGGS [r16_771_JUSTAS]    1.15
SAGGSAGGSMTIVIKVKSKEDALEAAKALLAELGIEEGAEVKKIEVEEVDPENKEYYVRIEVKSAGGSAGGS [r12_999_TrROS_Hall]    1.72
SAGGSTVSVVPFPDYLLVVTTDVRRTPVPDTDTVSTELTTTVTVIPLPDVPPPVLPFLDADGNPYYASAGGS [r8_46_TrMRF]    1.01
